- PROTOCOL: Determination of PFOA in liver (UPLC-MS/MS)
- Format: in vivo, Gallus gallus domesticus
- CONDITION_INFO: chicken, liver, other: air sac injection in ovo, 250 µg/egg, PFOA 250 µg/egg, chicken embryo liver, individual embryos; read-out: Concentration in liver
RECORDED_ENDPOINT: concentration at 5 d (ng/g)
One number for each entry, in ng/g.

In: # input compound: O=C(O)C(F)(F)C(F)(F)C(F)(F)C(F)(F)C(F)(F)C(F)(F)C(F)(F)F ; wanted: its concentration at 5 d
Out: 5060

* * *

- PROTOCOL: Determination of PFOA in blood plasma (UPLC-MS/MS)
- Format: in vivo, Gallus gallus domesticus
- CONDITION_INFO: chicken, plasma, other: air sac injection in ovo, 50 µg/egg, E12; PFOA 50 µg/egg; read-out: Concentration in plasma, Mean
RECORDED_ENDPOINT: concentration at 5 d

In: Quick one: concentration at 5 d for O=C(O)C(F)(F)C(F)(F)C(F)(F)C(F)(F)C(F)(F)C(F)(F)C(F)(F)F ?
Out: 2000 ng/mL

* * *

- PROTOCOL: Determination of PFOA in blood plasma (UPLC-MS/MS)
- Type: in vivo, Gallus gallus domesticus
- CONDITION_INFO: chicken, plasma, other: air sac injection in ovo, 250 µg/egg, E12; PFOA 250 µg/egg; read-out: Concentration in plasma, individual embryo
RECORDED_ENDPOINT: concentration at 5 d (µg/mL)
Numbers only, in µg/mL.

In: concentration at 5 d lookup needed for O=C(O)C(F)(F)C(F)(F)C(F)(F)C(F)(F)C(F)(F)C(F)(F)C(F)(F)F [PFOA, perfluorooctanoic acid] , thanks.
Out: 5.48

* * *

- PROTOCOL: Determination of PFOA in liver (UPLC-MS/MS)
- Assay type: in vivo, Gallus gallus domesticus
- CONDITION_INFO: chicken, liver, other: air sac injection in ovo, 250 μg/egg, E12; 250 μg PFOA/egg on E7; read-out: Mean PFOA concentration in liver
RECORDED_ENDPOINT: concentration at 5 d (ng/g)
One number for each entry, in ng/g.

In: Fill in: concentration at 5 d of O=C(O)C(F)(F)C(F)(F)C(F)(F)C(F)(F)C(F)(F)C(F)(F)C(F)(F)F [PFOA, perfluorooctanoic acid] is ___
Out: 3600

* * *

- PROTOCOL: Determination of PFOA in blood plasma (UPLC-MS/MS)
- Format: in vivo, Gallus gallus domesticus
- CONDITION_INFO: chicken, plasma, other: air sac injection in ovo, 1000 μg/egg, E12; 1000 μg PFOA/egg on E7; read-out: Mean PFOA concentration in plasma
RECORDED_ENDPOINT: concentration at 5 d (ng/mL)
One number for each entry, in ng/mL.

In: Quick one: concentration at 5 d of O=C(O)C(F)(F)C(F)(F)C(F)(F)C(F)(F)C(F)(F)C(F)(F)C(F)(F)F ?
Out: 18000

* * *

- PROTOCOL: Determination of PFOA in blood plasma (UPLC-MS/MS)
- Assay type: in vivo, Gallus gallus domesticus
- CONDITION_INFO: chicken, plasma, other: air sac injection in ovo, 1000 µg/egg, E12; PFOA 1000 µg/egg; read-out: Concentration in plasma, individual embryo
- Procedure: Controls were injected with 20 μL vehicle only (DMSO). Plasma was collected and stored at -70°C. The concentration of PFOA was analyzed in liver and blood plasma from control embryos and embryos exposed to PFOA (50, 250 and 1000 μg/egg). Five individual livers from each PFOA-treated group were analyzed. Very low PFOA concentrations were anticipated in the controls and therefore the amount of tissue was increased by pooling 2–3 livers, and five such pools were analyzed. […]
RECORDED_ENDPOINT: concentration at 5 d

In: Entry under review: O=C(O)C(F)(F)C(F)(F)C(F)(F)C(F)(F)C(F)(F)C(F)(F)C(F)(F)F . Reported concentration at 5 d?
Out: 16700 ng/mL
